Item-by-item account of PBM binding z-score
Test system: PPARg:RXRa 270nM:90nM, anti-RXR (NR concentration 270 nM, RXRa partner concentration 90 nM)
Measurement protocol: PBM binding z-score (relative to random genomic background probes); higher = stronger binding; sequences stand for … in GC…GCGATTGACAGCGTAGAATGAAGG
// no unit, no text: just the number

Field: example entries. Status: answers known.
INSERT INTO assay_data (sequence_chain, data_value) VALUES
  ('ACCTCTAGGTAAAAGTTCAGTGAATCCCGAGGAT', 7.47),
  ('CCAAGTAGGTTATGGGGCATTCAGGCAACGGTGA', 5.69),
  ('TTACCAACGTGAGCTGAGGTCGTTGATCCAACTC', -0.131),
  ('CGAACTAGGTCATTGACAGGACAGGGAATAGTAA', 6.18),
  ('CCGACTGGGGCAAGCTTACCATAACGCACAGCCA', 0.116);

Problem: Give the value of PBM binding z-score reported for the following: `CCTACTGGGCCAAAAAGGTCACTGATGCCGATAA`
Result: 4.35

Problem: Give reported PBM binding z-score value for `CGTCCAAGGTCAAGGTCAGTGACAGAGACTCGAA`
Result: 6.48
